Reported IC50 is given for each of the following molecules.
Test system: Bacillus subtilis (ATCC 6633)
Assay: Antimicrobial broth microdilution
Format: cell-based
Conditions: ATCC6633, B. subtilis
Assay Readout: IC50 (µg/mL)

| Molecule | Operator | Result Number |
| --- | --- | --- |
| C#CCOC(=O)C1(C)CCCC2(C)C1CCC13C=C(C(C)C)C(CC12)C1=C3C(=O)C=CC1=O (stereo not shown) [Compound 48] | = | 45 |
| C#CCOC(=O)C1(C)CCCC2(C)C1CCC13C=C(C(C)C)C(CC12)c1c(O)cc2c(C(=O)OC)c(C)[nH]c2c13 (stereo not shown) [Compound 45] | > | 256 |
| CC(C)C1=CC23CCC4C(C)(C(=O)O)CCCC4(C)C2CC1c1c(OCCC#N)ccc(OCCC#N)c13 (stereo not shown) [Compound 50] | = | 11.3 |
| Cc1[nH]c2c3c(c(O)cc2c1CO)[C@H]1C[C@@H]2[C@@]4(C)CCC[C@@](C)(CO)[C@@H]4CC[C@@]32C=C1C(C)C [Compound 38] | = | 102 |
